We begin with a simple list: items and their reported inhibition.
- Method Summary: BmaI1 acyl-homoserine lactone synthase inhibition – biochemical, fluorescence intensity, with counterscreen (AID 720554)
- Conditions Used: BmaI1 enzyme assay, measured here: counterscreen fluorescence % control, concentration not given here
Among all 12,000 compounds or so, about 45 (0.4%) were called active. The entries come from a sample that favours actives as a whole.
Respond numerically; units are % and should not be typed.

Here's what some known entries look like.
[[record]]
compound = "Cc1cc(C(=O)CN(Cc2ccco2)S(=O)(=O)/C=C/c2ccccc2)c(C)n1C"
result = 0.5

[[record]]
compound = "Nc1ccc(S(=O)(=O)CCSS(=O)(=O)c2ccc(N)cc2)cc1"
result = 0.5

[[record]]
compound = "COc1cc(C(=O)CSc2cccc[n+]2[O-])cc(OC)c1OC"
result = 6.5

[[record]]
compound = "Oc1ccc(/C=N/n2c(-c3ccco3)csc2=Nc2ccc(F)cc2F)c(O)c1"
result = 19

[[record]]
compound = "O=S(=O)(c1ccc(N=C=S)cc1)N1CCOCC1"
result = -3


[in] I am curious: what inhibition value has been reported for "Cc1sc2c(c1C)C1=NS(=O)(=O)CCN1C=N2" ?
[out] 10

[in] I am curious: what inhibition value has been reported for "COc1ccc(C(=O)OCc2ccccc2F)c(OC)c1OC" ?
[out] 12.5

[in] I am curious: what inhibition value has been reported for "COc1ccccc1C(=O)CSc1cccc[n+]1[O-]" ?
[out] 10

[in] I am curious: what inhibition value has been reported for "O=S1(=O)CCN2C=CSC2=N1" ?
[out] 11.5

[in] I am curious: what inhibition value has been reported for "O=S(=O)(c1ccc2oc(=S)n(CN3CCOCC3)c2c1)N1CCOCC1" ?
[out] 4

[in] I am curious: what inhibition value has been reported for "COc1ccc(COC(=O)c2cc(O)c3ccccc3c2O)cc1F" ?
[out] 19.5

[in] I am curious: what inhibition value has been reported for "COC(=O)c1cnc(N)s1" ?
[out] 5

[in] I am curious: what inhibition value has been reported for CCOC(=O)C1CCN(C(C)C(=O)Nc2ccc(C(C)C)cc2)CC1 (stereo not given) ?
[out] 3

[in] I am curious: what inhibition value has been reported for "CC(C)CNCC(=O)Nc1ccc(S(N)(=O)=O)cc1" ?
[out] -1.5

[in] I am curious: what inhibition value has been reported for "CN=c1scc(-c2ccccc2)n1/N=C/c1ccsc1" ?
[out] -7

* * *

We begin with a simple list: items and their reported inhibition.
- Method Summary: BmaI1 acyl-homoserine lactone synthase inhibition – biochemical, fluorescence intensity, with counterscreen (AID 720554)
- Conditions Used: BmaI1 enzyme assay, measured here: counterscreen fluorescence % control, concentration not given here
Out of some 12,000 compounds screened, about 45 (0.4%) were called active. The entries come from a sample that favours actives as a whole.
Respond numerically; units are % and should not be typed.

[[record]]
compound = "COc1ccc(OCC(=O)N2CC(C)CC(C)C2)cc1 (centres undefined)"
unit_abbreviation = "%"
result = -8

[[record]]
compound = "N#CCC(=O)Nc1ccc(C(=O)NCc2ccccc2)cc1"
unit_abbreviation = "%"
result = 21.5

[[record]]
compound = "O=Nc1c(O)[nH]c2c(C(F)(F)F)cccc12"
unit_abbreviation = "%"
result = 11


[in] I am curious: what inhibition value has been reported for "CN1/C(=C\C=N\NC(N)=S)C(C)(C)c2ccccc21" ?
[out] 29

[in] I am curious: what inhibition value has been reported for "Cc1cc(O)c(CN2CC=C(c3ccccc3)CC2)cc1C(C)C" ?
[out] -16

[in] I am curious: what inhibition value has been reported for COc1ccc(NC(=O)COC(=O)C23CCC(=O)N2c2ccccc2S3)cc1 (centres undefined) ?
[out] 5

[in] I am curious: what inhibition value has been reported for "Cc1csc(SCC(=O)c2ccc(S(=O)(=O)N3CCCCC3)cc2)n1" ?
[out] 21.5

[in] I am curious: what inhibition value has been reported for "O=C1CCc2ccccc2N1" ?
[out] -5

[in] I am curious: what inhibition value has been reported for CCC(C)N=C1NC(=O)C(CC(=O)NCc2ccccc2)S1 (centres undefined) ?
[out] 8.5

[in] I am curious: what inhibition value has been reported for COC(=O)c1ccc(C(c2cc3c(cc2O)OCO3)N2CCN(c3ccccc3)CC2)cc1 (centres undefined) ?
[out] 24

[in] I am curious: what inhibition value has been reported for "Cc1nc2ccc(NC(=O)C3CCCC3)cc2s1" ?
[out] 12.5

[in] I am curious: what inhibition value has been reported for "O=c1[nH]nc(-c2ccco2)o1" ?
[out] -7

[in] I am curious: what inhibition value has been reported for "CCOc1ccc(O)c(C=NC2CCCC2)c1" ?
[out] 2.5

[in] I am curious: what inhibition value has been reported for O=C1NC(C(=O)O)Cc2ccccc21 (centres undefined) ?
[out] 9

[in] I am curious: what inhibition value has been reported for COC(=O)C(C)Sc1ncnc2sc(C)c(C)c12 (centres undefined) ?
[out] 7

[in] I am curious: what inhibition value has been reported for Oc1c(C(Nc2ccccn2)c2cccnc2)ccc2cccnc12 (centres undefined) ?
[out] -15

[in] I am curious: what inhibition value has been reported for "Cc1ccc(-c2csc(NC(=O)C3(c4ccccc4)CC3)n2)s1" ?
[out] 20

[in] I am curious: what inhibition value has been reported for "CCc1ccc(C2=Nn3c(nnc3-c3cccc(S(=O)(=O)N(CC)CC)c3)SC2)cc1" ?
[out] 3

[in] I am curious: what inhibition value has been reported for "S=c1[nH]c(-c2ccccc2)cn1/N=C/c1ccc2c(c1)OCCO2" ?
[out] 41.5

[in] I am curious: what inhibition value has been reported for Cc1nn(-c2ccccc2)c2c1CC(C#N)(c1ccccn1)C1CCCN21 (centres undefined) ?
[out] 3

[in] I am curious: what inhibition value has been reported for "N[C@@H](C(=O)N[C@@H]1C(=O)N2C(C(=O)O)=C(Cl)CS[C@H]12)c1ccccc1" ?
[out] 4.5

[in] I am curious: what inhibition value has been reported for Cc1ccc(NNC(=S)NCC2CCCO2)c(C)c1 (centres undefined) ?
[out] 6.5

[in] I am curious: what inhibition value has been reported for "CNC(=O)c1sc(CN2C(=O)c3ccccc3S2(=O)=O)nc1C" ?
[out] -7
